Target: 3-phosphoinositide-dependent protein kinase 1 (Homo sapiens)
Test: Inhibition of PDK1 (unknown origin) at 10 uM by FRET-based Z-lyte assay

- molecule: "O=C1Nc2ccc(NC(=O)[C@H](NC(=O)c3cccn(Cc4ccc(F)c(F)c4)c3=O)c3ccccc3)cc2/C1=C/c1cccs1"
  unit-of-measure: "%"
  value-modifier: "<"
  inhibition: 10
- molecule: "O=C(CNC(=O)c1cccn(Cc2ccc(F)c(F)c2)c1=O)Nc1ccc2c(c1)/C(=C/c1cnc[nH]1)C(=O)N2"
  unit-of-measure: "%"
  value-modifier: "="
  inhibition: 87
- molecule: "O=C1Nc2ccc(NC(=O)c3cccn(Cc4ccc(F)c(F)c4)c3=O)cc2/C1=C/c1cccs1"
  unit-of-measure: "%"
  value-modifier: "<"
  inhibition: 10
- molecule: "O=C(CNC(=O)c1cccn(Cc2ccc(F)c(F)c2)c1=O)Nc1ccc2c(c1)/C(=C/c1cccs1)C(=O)N2"
  unit-of-measure: "%"
  value-modifier: "="
  inhibition: 19
- molecule: "O=C1Nc2ccc(NC(=O)[C@H](NC(=O)c3cccn(Cc4ccc(F)c(F)c4)c3=O)c3ccccc3)cc2/C1=C/c1cnc[nH]1"
  unit-of-measure: "%"
  value-modifier: "="
  inhibition: 95
- molecule: "O=C1Cc2cc(NC(=O)c3cccn(Cc4ccc(F)c(F)c4)c3=O)ccc2N1"
  unit-of-measure: "%"
  value-modifier: "<"
  inhibition: 10

----------
Target: 3-phosphoinositide-dependent protein kinase 1 (Homo sapiens) (UniProt O15530)
Sequence (O15530 whole entry): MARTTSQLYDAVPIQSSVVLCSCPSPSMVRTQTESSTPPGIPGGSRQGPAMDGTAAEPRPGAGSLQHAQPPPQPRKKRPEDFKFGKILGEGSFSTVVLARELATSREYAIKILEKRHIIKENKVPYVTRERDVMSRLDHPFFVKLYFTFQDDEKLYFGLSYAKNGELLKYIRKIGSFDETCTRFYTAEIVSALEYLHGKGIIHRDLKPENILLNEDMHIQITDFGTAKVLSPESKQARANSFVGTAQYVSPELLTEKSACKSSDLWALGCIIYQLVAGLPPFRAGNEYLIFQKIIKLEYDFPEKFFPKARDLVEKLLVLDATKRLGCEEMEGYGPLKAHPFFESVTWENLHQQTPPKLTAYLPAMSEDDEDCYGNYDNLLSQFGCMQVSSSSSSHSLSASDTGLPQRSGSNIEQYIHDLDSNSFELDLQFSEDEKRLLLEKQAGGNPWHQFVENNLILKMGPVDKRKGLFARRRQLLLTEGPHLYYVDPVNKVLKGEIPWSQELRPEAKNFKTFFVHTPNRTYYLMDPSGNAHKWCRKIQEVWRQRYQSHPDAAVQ
Assay: Inhibition of PDK1 (unknown origin) at 10 uM by FRET-based Z-lyte assay
measurement-type: inhibition

- molecule: "Cn1ccnc1/C=C1/C(=O)Nc2ccc(NC(=O)c3cccn(Cc4ccc(F)c(F)c4)c3=O)cc21"
  measurement-type: "inhibition"
  recorded-result: "< 10%"
- molecule: "O=C1Cc2cc(NC(=O)[C@H](NC(=O)c3cccn(Cc4ccc(F)c(F)c4)c3=O)c3ccccc3)ccc2N1"
  measurement-type: "inhibition"
  recorded-result: "< 10%"
- molecule: "O=C1Nc2ccc(NC(=O)[C@H](NC(=O)c3cccn(Cc4ccc(F)c(F)c4)c3=O)c3ccccc3)cc2/C1=C/c1ncc[nH]1"
  measurement-type: "inhibition"
  recorded-result: "74%"
- molecule: "O=C1Nc2ccc(NC(=O)[C@H](NC(=O)c3cccn(Cc4ccc(F)c(F)c4)c3=O)c3ccccc3)cc2/C1=C\\c1ccc(F)cc1"
  measurement-type: "inhibition"
  recorded-result: "< 10%"
- molecule: "O=C(CNC(=O)c1cccn(Cc2ccc(F)c(F)c2)c1=O)Nc1ccc2c(c1)/C(=C\\c1ccc(F)cc1)C(=O)N2"
  measurement-type: "inhibition"
  recorded-result: "< 10%"
- molecule: "O=C1Nc2ccc(NC(=O)c3cccn(Cc4ccc(F)c(F)c4)c3=O)cc2/C1=C/c1cnc[nH]1"
  measurement-type: "inhibition"
  recorded-result: "64%"
- molecule: "O=C1Nc2ccc(NC(=O)c3cccn(Cc4ccc(F)c(F)c4)c3=O)cc2/C1=C\\c1ccc(F)cc1"
  measurement-type: "inhibition"
  recorded-result: "< 10%"
- molecule: "O=C(CNC(=O)c1cccn(Cc2ccc(F)c(F)c2)c1=O)Nc1ccc2c(c1)CC(=O)N2"
  measurement-type: "inhibition"
  recorded-result: "57%"
